Each record here notes measured switch fluorescence ratio.
Tested on: ATP;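 also: ATP exposure 15 min at 22 °C before imaging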
Experiment: switch fluorescence ratio, 500 uM ATP over buffer (Cy3 cluster intensity, sum of 5 cycles each) (fold (ratio)); higher = stronger signal-on switching upon ATP binding; sequences stand for … in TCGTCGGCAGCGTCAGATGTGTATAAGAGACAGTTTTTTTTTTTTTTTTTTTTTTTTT…TC
Settings: aptamer strand: ATP DNA aptamer (quencher-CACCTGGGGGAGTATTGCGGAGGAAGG + anchor), 100 nM annealed; ATP concentration: 500 uM
parameter: switch fluorescence ratio

residue_codes=CGGAGTTGGG parameter="switch fluorescence ratio" readout_number=0.986
residue_codes=TAACACGTCG parameter="switch fluorescence ratio" readout_number=0.995
residue_codes=ATGGCAGACA parameter="switch fluorescence ratio" readout_number=0.984
residue_codes=GGAGTGGGGG parameter="switch fluorescence ratio" readout_number=0.984
residue_codes=CTGGTCGAAT parameter="switch fluorescence ratio" readout_number=1
residue_codes=GGATTGCGG parameter="switch fluorescence ratio" readout_number=1.01
residue_codes=TATTTGTCCA parameter="switch fluorescence ratio" readout_number=0.981
residue_codes=AAAGGTAGTA parameter="switch fluorescence ratio" readout_number=0.993
residue_codes=TAAGGGTTAT parameter="switch fluorescence ratio" readout_number=0.978
residue_codes=GGCGGGGTTG parameter="switch fluorescence ratio" readout_number=0.996
residue_codes=TTTCTCAGTC parameter="switch fluorescence ratio" readout_number=1
residue_codes=CATAGGGGTA parameter="switch fluorescence ratio" readout_number=1.01
residue_codes=CTCGACAGGG parameter="switch fluorescence ratio" readout_number=0.991
residue_codes=TTTCATTCTT parameter="switch fluorescence ratio" readout_number=1
residue_codes=TTCATCGTAT parameter="switch fluorescence ratio" readout_number=1.01
residue_codes=AGCCTATTGT parameter="switch fluorescence ratio" readout_number=0.972
residue_codes=GAATTAAAGT parameter="switch fluorescence ratio" readout_number=0.982
residue_codes=AATTTTAGTA parameter="switch fluorescence ratio" readout_number=1.02
residue_codes=CAAACAGTCG parameter="switch fluorescence ratio" readout_number=1.01
residue_codes=ATTTAAAGAT parameter="switch fluorescence ratio" readout_number=0.987
residue_codes=CGTGGGGTGT parameter="switch fluorescence ratio" readout_number=1.01
residue_codes=TTAACGGTGT parameter="switch fluorescence ratio" readout_number=1
residue_codes=CATATGGCTT parameter="switch fluorescence ratio" readout_number=1.02
residue_codes=CCTGTCTTCT parameter="switch fluorescence ratio" readout_number=0.987
residue_codes=GGTAGTGCTG parameter="switch fluorescence ratio" readout_number=0.982
residue_codes=GGGTGGCCTA parameter="switch fluorescence ratio" readout_number=1
residue_codes=TCTAATTCAA parameter="switch fluorescence ratio" readout_number=0.996
residue_codes=ACCTGATTAT parameter="switch fluorescence ratio" readout_number=1.02
residue_codes=CGGTTAGTGT parameter="switch fluorescence ratio" readout_number=0.971
residue_codes=ATACATGTAG parameter="switch fluorescence ratio" readout_number=0.984

====

System: ATP;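 also: ATP exposure 15 min at 22 °C before imaging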
Experiment: switch fluorescence ratio, 500 uM ATP over buffer (Cy3 cluster intensity, sum of 5 cycles each) (fold (ratio)); higher = stronger signal-on switching upon ATP binding; sequences stand for … in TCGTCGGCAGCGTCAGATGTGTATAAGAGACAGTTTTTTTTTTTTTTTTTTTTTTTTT…TC
Details: aptamer strand: ATP DNA aptamer (quencher-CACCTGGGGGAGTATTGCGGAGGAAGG + anchor), 100 nM annealed; ATP concentration: 500 uM
parameter: switch fluorescence ratio

residue_codes=TAAAGTAATT tested_on=ATP parameter="switch fluorescence ratio" readout_number=0.991
residue_codes=CGATGTCGAA tested_on=ATP parameter="switch fluorescence ratio" readout_number=1.01
residue_codes=AATGGGAAGA tested_on=ATP parameter="switch fluorescence ratio" readout_number=0.999
residue_codes=CAGGGGGGAG tested_on=ATP parameter="switch fluorescence ratio" readout_number=0.992
residue_codes=CGAGTTTGAC tested_on=ATP parameter="switch fluorescence ratio" readout_number=0.977
residue_codes=TCTGGCCGCG tested_on=ATP parameter="switch fluorescence ratio" readout_number=1.01
residue_codes=AGGGCAGGGA tested_on=ATP parameter="switch fluorescence ratio" readout_number=0.993
residue_codes=GTGTAAGGTA tested_on=ATP parameter="switch fluorescence ratio" readout_number=1.02
residue_codes=ATTTTATAAA tested_on=ATP parameter="switch fluorescence ratio" readout_number=0.986
residue_codes=GCTGTTGGAA tested_on=ATP parameter="switch fluorescence ratio" readout_number=0.985
residue_codes=GGGGTAATCA tested_on=ATP parameter="switch fluorescence ratio" readout_number=0.999
residue_codes=TGATGGTGGG tested_on=ATP parameter="switch fluorescence ratio" readout_number=0.979
residue_codes=ATTCTTTGGG tested_on=ATP parameter="switch fluorescence ratio" readout_number=1.01
residue_codes=AGCCGTTTCG tested_on=ATP parameter="switch fluorescence ratio" readout_number=0.999
residue_codes=TTTTCCTATG tested_on=ATP parameter="switch fluorescence ratio" readout_number=0.977
residue_codes=AGCATTGGCT tested_on=ATP parameter="switch fluorescence ratio" readout_number=1.02
residue_codes=GGGGGCACAG tested_on=ATP parameter="switch fluorescence ratio" readout_number=0.992
residue_codes=TTGAATTTCT tested_on=ATP parameter="switch fluorescence ratio" readout_number=0.992

====

Test system: ATP;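 also: ATP exposure 15 min at 22 °C before imaging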
Experiment: switch fluorescence ratio, 500 uM ATP over buffer (Cy3 cluster intensity, sum of 5 cycles each) (fold (ratio)); higher = stronger signal-on switching upon ATP binding; sequences stand for … in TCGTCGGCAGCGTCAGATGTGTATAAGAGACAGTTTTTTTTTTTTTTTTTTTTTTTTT…TC
Settings: aptamer strand: ATP DNA aptamer (quencher-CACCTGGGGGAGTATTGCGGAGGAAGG + anchor), 100 nM annealed; ATP concentration: 500 uM
Each record here notes measured switch fluorescence ratio.
parameter: switch fluorescence ratio

residue_codes=CGTGCGGGGA parameter="switch fluorescence ratio" readout_number=1.02
residue_codes=TTATACAGGA parameter="switch fluorescence ratio" readout_number=1.02
residue_codes=CCTGGGAGGA parameter="switch fluorescence ratio" readout_number=1.01
residue_codes=CGGTGGGGGA parameter="switch fluorescence ratio" readout_number=0.986

====

Each record here notes measured switch fluorescence ratio.
Tested on: ATP;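 also: ATP exposure 15 min at 22 °C before imaging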
Assay: switch fluorescence ratio, 500 uM ATP over buffer (Cy3 cluster intensity, sum of 5 cycles each) (fold (ratio)); higher = stronger signal-on switching upon ATP binding; sequences stand for … in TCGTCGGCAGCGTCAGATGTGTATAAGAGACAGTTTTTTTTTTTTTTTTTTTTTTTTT…TC
Conditions: aptamer strand: ATP DNA aptamer (quencher-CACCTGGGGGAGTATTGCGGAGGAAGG + anchor), 100 nM annealed; ATP concentration: 500 uM
parameter: switch fluorescence ratio

residue_codes=ACCGTAGCTT readout_number=2.61
residue_codes=CAGGTTAGGT readout_number=1
residue_codes=TAGCGGGCGC readout_number=0.986
residue_codes=ACATTTGGGT readout_number=1.01
residue_codes=AATTCTCTGT readout_number=1.03
residue_codes=GATGTTGTTA readout_number=0.965
residue_codes=GAAAAGTAAG readout_number=1.02
residue_codes=AGTGGTCCTT readout_number=0.974
residue_codes=CGTTGTTCGC readout_number=1.02
residue_codes=ACTCTACTTG readout_number=1.42
residue_codes=GGTGGGTTGT readout_number=1.03
residue_codes=TAGGTAAAGA readout_number=0.98
residue_codes=CACTGTATCG readout_number=1.13

====

Each record here notes measured switch fluorescence ratio.
Tested on: ATP;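 also: ATP exposure 15 min at 22 °C before imaging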
Experiment: switch fluorescence ratio, 500 uM ATP over buffer (Cy3 cluster intensity, sum of 5 cycles each) (fold (ratio)); higher = stronger signal-on switching upon ATP binding; sequences stand for … in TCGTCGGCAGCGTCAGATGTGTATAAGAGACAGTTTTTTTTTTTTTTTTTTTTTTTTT…TC
Settings: aptamer strand: ATP DNA aptamer (quencher-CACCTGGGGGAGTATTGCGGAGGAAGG + anchor), 100 nM annealed; ATP concentration: 500 uM
parameter: switch fluorescence ratio

residue_codes=GTTAGGAGGC tested_on=ATP result=0.989
residue_codes=CTAGTCAATC tested_on=ATP result=1.7
residue_codes=GGTAGTAGTG tested_on=ATP result=1.01
residue_codes=CAACGGGGGA tested_on=ATP result=1
residue_codes=TCTTGGGACG tested_on=ATP result=0.979
residue_codes=ATATTTTTT tested_on=ATP result=0.989
residue_codes=GGGGAATCCT tested_on=ATP result=1.04
residue_codes=GGGCATGAAG tested_on=ATP result=1.02

====

Each record here notes measured switch fluorescence ratio.
Test system: ATP;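 also: ATP exposure 15 min at 22 °C before imaging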
Assay: switch fluorescence ratio, 500 uM ATP over buffer (Cy3 cluster intensity, sum of 5 cycles each) (fold (ratio)); higher = stronger signal-on switching upon ATP binding; sequences stand for … in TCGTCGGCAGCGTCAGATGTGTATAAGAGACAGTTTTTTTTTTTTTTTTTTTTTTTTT…TC
Conditions: aptamer strand: ATP DNA aptamer (quencher-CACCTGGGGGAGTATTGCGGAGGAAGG + anchor), 100 nM annealed; ATP concentration: 500 uM
parameter: switch fluorescence ratio

residue_codes=CTGCAGATCG readout_number=1.02
residue_codes=TTTTATTTGG readout_number=0.983
residue_codes=CCTTTCGTGT readout_number=1.19
residue_codes=TGGCGAAGGA readout_number=1.02
residue_codes=ATGTGTAGAG readout_number=0.995
residue_codes=ATCGTCGGTT readout_number=0.973
residue_codes=CGGTTTGGTG readout_number=1.01
residue_codes=AGTATGTATA readout_number=0.996
residue_codes=AAAGGAGTA readout_number=1.01
residue_codes=TTGTTGTGCT readout_number=0.961
residue_codes=GGGGAGTGCT readout_number=0.987
residue_codes=AAGGCGTACT readout_number=1.03
residue_codes=GCGAATTAGG readout_number=0.972
residue_codes=TTTTAAGCCC readout_number=1.03
residue_codes=TGAGGGGATA readout_number=1.01
residue_codes=TTGGGTTTTT readout_number=1.04
residue_codes=GGAGGGAGCG readout_number=1
residue_codes=TTACTGTAAT readout_number=1.18
residue_codes=CCATAGCAGG readout_number=3.97
residue_codes=AGTATGTTTC readout_number=1
residue_codes=TAGGAGGTGG readout_number=1.03
residue_codes=GTAAGGAGTA readout_number=0.962
residue_codes=GTTCGTCTTT readout_number=1
residue_codes=AGCTCGCGTC readout_number=0.981
residue_codes=ACTTTTTTTA readout_number=1.02
residue_codes=TTATGTTTTG readout_number=0.999
residue_codes=GCGGAAGAGC readout_number=1.06
residue_codes=CCGCCTTAAT readout_number=2.21
residue_codes=GAAGTGATAT readout_number=1.21
residue_codes=AAAGGATACG readout_number=1.01
residue_codes=CGGTACGCTG readout_number=1.01
residue_codes=TTGGTAGTCA readout_number=0.992
residue_codes=AGACTCGGGT readout_number=1.02
residue_codes=AGATGATGGG readout_number=0.99
residue_codes=TCAAGGGAAC readout_number=0.983
residue_codes=CAATTGGATG readout_number=1
residue_codes=TAAAGTATAA readout_number=0.972
residue_codes=CGTCATGGGT readout_number=1
residue_codes=TAGTAACGGT readout_number=0.996
residue_codes=CACGGCTCGC readout_number=1.04
residue_codes=GTTTTATGG readout_number=0.982
residue_codes=GTGAGGTGTG readout_number=1
residue_codes=TTATCTGTTA readout_number=1.01
residue_codes=AGTATAACGA readout_number=1.06
residue_codes=CGTGCATCGA readout_number=1.01
residue_codes=ATGTGCTGCG readout_number=0.993
residue_codes=AGAAAATAGT readout_number=1.03
residue_codes=ACCTGCTAAC readout_number=1.59
residue_codes=GCGAGAGGAT readout_number=0.985
residue_codes=TGCGTTAAAA readout_number=0.994
residue_codes=GATGTGGGCA readout_number=1.05
residue_codes=TGGGTGAAAA readout_number=1
